Multiple publications report Ki for Renin (Homo sapiens, UniProt P00797); what follows is a combined list.
study.system: Renin (Homo sapiens, UniProt P00797)
Sequence (P00797 whole entry): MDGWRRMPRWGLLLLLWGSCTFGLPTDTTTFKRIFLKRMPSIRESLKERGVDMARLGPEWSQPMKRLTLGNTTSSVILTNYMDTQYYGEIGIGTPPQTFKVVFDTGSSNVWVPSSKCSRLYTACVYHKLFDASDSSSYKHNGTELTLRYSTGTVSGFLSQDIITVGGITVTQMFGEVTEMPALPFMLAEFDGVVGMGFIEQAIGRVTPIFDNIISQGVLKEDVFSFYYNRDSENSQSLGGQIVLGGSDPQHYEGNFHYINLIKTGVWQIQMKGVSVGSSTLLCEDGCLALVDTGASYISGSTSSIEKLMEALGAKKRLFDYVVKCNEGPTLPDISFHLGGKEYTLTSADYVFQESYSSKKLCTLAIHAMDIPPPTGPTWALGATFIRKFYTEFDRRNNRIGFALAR

compound	Ki (µM)
COC(=O)[C@H](Cc1ccccc1)NC(=O)[C@@H](NC(=O)[C@H](CC(C)C)NC(=O)[C@H](O)CC(C)C)C(C)C	600
CC(C)[C@]1(C)CC(=O)N(Cc2cc(F)cc(N3C[C@@H](c4ccccc4)CC3=O)c2)C(=N)N1	0.019
COC(=O)[C@H](Cc1ccccc1)NC(=O)[C@H](CC(C)C)NC(=O)CC(O)[C@H](CC(C)C)NC(=O)[C@H](Cc1c[nH]cn1)NC(=O)COC(=O)C(C)(C)C (stereo partly specified)	1.1
COCCOC1CCCc2cc(cc(N(C)S(C)(=O)=O)c2)C(=O)N[C@H]([C@@H](O)C[C@H](C(=O)NCC(C)C)C(C)C)COCc2cccc1c2 (stereo partly specified)	0.94
COC(=O)[C@@H](/C=C/[C@H](CC(C)C)NC(=O)C(F)(F)[C@H](O)[C@H](CC(C)C)NC(=O)[C@H](Cc1ccccc1)NC(=O)[C@H](Cc1ccccc1)NC(=O)OC(C)(C)C)Cc1ccccc1	16
COC(=O)[C@H](Cc1ccccc1)NC(=O)[C@@H](NC(=O)[C@@H](CC(C)C)NC(=O)[C@H](O)[C@@H](N)CC(C)C)C(C)C	1520
